- Test system: Lomentospora prolificans
- experimentalDetails: Antifungal activity against Scedosporium prolificans 05-203060 after 48 to 72 hrs
- Type: functional
# MFC per record follows
propertyMeasured: MFC

[[record]]
chemsmiles = "CCCCCc1cc[n+](CCCCCCCCCCCC[n+]2ccc(CCCCC)c(C)c2)cc1C.[Cl-].[Cl-]"
propertymeasured = "MFC"
observedvalue = "6.83 µg/mL"

[[record]]
chemsmiles = "CCCCCc1cc[n+](CCCCCCCCCCCC[n+]2ccc(CCCCC)cc2)cc1.[Cl-].[Cl-]"
propertymeasured = "MFC"
observedvalue = "2.96 µg/mL"

[[record]]
chemsmiles = "CCCCCc1cc[n+](CCCCCCCCCCCC[n+]2ccc(CCCCC)c(CCCCC)c2)cc1CCCCC.[Cl-].[Cl-]"
propertymeasured = "MFC"
observedvalue = "3.7 µg/mL"

[[record]]
chemsmiles = "CC(C)(C)CCc1cc[n+](CCCCCCCCCCCC[n+]2ccc(CCC(C)(C)C)cc2)cc1.[Cl-].[Cl-]"
propertymeasured = "MFC"
observedvalue = "12.7 µg/mL"

[[record]]
chemsmiles = "CCCCCc1cccc[n+]1CCCCCCCCCCCC[n+]1ccccc1CCCCC.[Cl-].[Cl-]"
propertymeasured = "MFC"
observedvalue = "5.9 µg/mL"


====

- Tested on: Fusarium solani
- experimentalDetails: Antifungal activity against Fusarium solani 04-203102 after 24 to 72 hrs by broth microdilution method
- Format: functional
List of MIC values.
propertyMeasured: MIC (µg/mL)

[[record]]
chemsmiles = "CCCCC(CCCC)c1cc[n+](CCCCCCCCCCCC[n+]2ccc(C(CCCC)CCCC)c(C)c2)cc1C.[Cl-].[Cl-]"
boundtype = "="
observedvalue = 29.8

[[record]]
chemsmiles = "CCCCCc1cc[n+](CCCCCCCCCCCC[n+]2ccc(CCCCC)c(C)c2)cc1C.[Cl-].[Cl-]"
boundtype = "="
observedvalue = 12.7

[[record]]
chemsmiles = "CCCCCc1cc[n+](CCCCCCCCCCCC[n+]2ccc(CCCCC)cc2)cc1.[Cl-].[Cl-]"
boundtype = "="
observedvalue = 47.3

[[record]]
chemsmiles = "[Cl-].[Cl-].c1ccc(CCCc2cc[n+](CCCCCCCCCCCC[n+]3ccc(CCCc4ccccc4)cc3)cc2)cc1"
boundtype = "="
observedvalue = 27.9

[[record]]
chemsmiles = "CC(C)(C)CCc1cc[n+](CCCCCCCCCCCC[n+]2ccc(CCC(C)(C)C)cc2)cc1.[Cl-].[Cl-]"
boundtype = ">"
observedvalue = 50.7

[[record]]
chemsmiles = "CCCCCCc1cc[n+](CCCCCCCCCCCC[n+]2ccc(CCCCCC)cc2)cc1.[Cl-].[Cl-]"
boundtype = "="
observedvalue = 12.7

[[record]]
chemsmiles = "CC(C)CCc1cc[n+](CCCCCCCCCCCC[n+]2ccc(CCC(C)C)cc2)cc1.[Cl-].[Cl-]"
boundtype = "="
observedvalue = 47.3

[[record]]
chemsmiles = "CCCCCc1cccc[n+]1CCCCCCCCCCCC[n+]1ccccc1CCCCC.[Cl-].[Cl-]"
boundtype = "="
observedvalue = 23.7

[[record]]
chemsmiles = "CCCCCc1cc[n+](CCCCCCCCCCCC[n+]2ccc(CCCCC)c(CCCCC)c2)cc1CCCCC.[Cl-].[Cl-]"
boundtype = "="
observedvalue = 14.9

[[record]]
chemsmiles = "C=CCCCc1cc[n+](CCCCCCCCCCCC[n+]2ccc(CCCC=C)cc2)cc1.[Cl-].[Cl-]"
boundtype = "="
observedvalue = 47.3

